Molecular target: T1, EsCas13d, nuclease-dead (Eubacterium siraeum, UniProt B0MS50, R295A;H300A;R849A;H854A)
T1 sequence: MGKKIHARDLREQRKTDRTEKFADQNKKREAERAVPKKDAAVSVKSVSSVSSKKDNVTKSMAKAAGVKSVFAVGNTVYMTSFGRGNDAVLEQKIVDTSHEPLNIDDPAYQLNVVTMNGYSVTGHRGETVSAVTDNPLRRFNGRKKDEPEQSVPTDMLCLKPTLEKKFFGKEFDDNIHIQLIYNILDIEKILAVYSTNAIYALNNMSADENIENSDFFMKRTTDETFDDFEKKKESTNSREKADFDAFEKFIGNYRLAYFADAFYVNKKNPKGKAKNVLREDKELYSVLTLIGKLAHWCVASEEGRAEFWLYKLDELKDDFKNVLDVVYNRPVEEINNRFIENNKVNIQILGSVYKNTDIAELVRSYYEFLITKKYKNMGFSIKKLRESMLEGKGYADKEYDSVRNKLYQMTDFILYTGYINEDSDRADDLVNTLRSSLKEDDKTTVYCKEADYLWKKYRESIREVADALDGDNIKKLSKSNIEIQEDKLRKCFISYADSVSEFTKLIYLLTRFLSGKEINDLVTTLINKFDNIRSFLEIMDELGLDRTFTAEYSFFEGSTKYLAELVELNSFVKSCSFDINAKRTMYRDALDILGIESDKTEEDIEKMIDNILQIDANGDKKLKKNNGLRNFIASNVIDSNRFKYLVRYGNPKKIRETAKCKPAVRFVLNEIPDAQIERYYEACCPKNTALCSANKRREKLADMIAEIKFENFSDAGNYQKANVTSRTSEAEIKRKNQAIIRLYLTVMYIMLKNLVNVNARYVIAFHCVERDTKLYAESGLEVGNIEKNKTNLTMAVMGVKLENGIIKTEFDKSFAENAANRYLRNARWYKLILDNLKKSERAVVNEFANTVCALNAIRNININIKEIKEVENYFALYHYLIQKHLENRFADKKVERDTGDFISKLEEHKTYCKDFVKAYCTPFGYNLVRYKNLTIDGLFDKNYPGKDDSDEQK
Test: crRNA (strand 1, pre-loaded); Mg2+; 40 mM Tris-HCl pH 7.5, 150 mM NaCl, 6 mM MgCl2, 1 mM DTT, 0.1% Tween-20, 0.2 mg/ml BSA; 25 C; 10 min per concentration, then washed
Settings: tags: His6-TwinStrep-SUMO cleaved; N-terminal SNAP kept (SNAP-Surface 488); label: 3' end held by stalled T7 RNA polymerase
Assay Endpoint: Kd (nM)
Expressed in nM, but write only the number.

target 1 complement block 1-10 (mixed) RNA 1: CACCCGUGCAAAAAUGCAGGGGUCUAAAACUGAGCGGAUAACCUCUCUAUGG RNA 2: GGGAAUGGAUCCACAUCUACGAAUUCGUACCAUAGAGAGGUAUAGGCGAGUCCGAGAUCGGAAGAGCACACGU : 16.6
target 1 A1C,A16C (mixed) RNA 1: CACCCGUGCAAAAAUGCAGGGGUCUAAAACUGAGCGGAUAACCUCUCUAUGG RNA 2: GGGAAUGGAUCCACAUCUACGAAUUCGUACCAUAGCGAGGUUAUCCGCUCCCCGAGAUCGGAAGAGCACACGU : 42
target 1 MT 5'PFS CUA 3'PFS AUC (mixed) RNA 1: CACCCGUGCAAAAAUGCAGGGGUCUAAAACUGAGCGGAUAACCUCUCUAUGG RNA 2: GGGAAUGGAUCCACAUCUACGAAUUCCUACCAUAGAGAGGUUAUCCGCUCAAUCAGAUCGGAAGAGCACACGU : 14.2

Measured Kd, target 1 insG 3' of 20,insA 3' of 8 (mixed) RNA 1: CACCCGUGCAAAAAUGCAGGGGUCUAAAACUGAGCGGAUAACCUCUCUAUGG RNA 2: GGGAAUGGAUCCACAUCUACGAAUUCGUACCAGUAGAGAGGUUAUACCGCUCACCGAGAUCGGAAGAGCACACGU : 60

Measured Kd, target 1 C7A,G12C (mixed) RNA 1: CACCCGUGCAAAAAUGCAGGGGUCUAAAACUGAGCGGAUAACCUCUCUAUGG RNA 2: GGGAAUGGAUCCACAUCUACGAAUUCGUACCAUAGAGAGCUUAUACGCUCACCGAGAUCGGAAGAGCACACGU : 16.4

Measured Kd, target 1 insC 3' of 13,insU 3' of 12 (mixed) RNA 1: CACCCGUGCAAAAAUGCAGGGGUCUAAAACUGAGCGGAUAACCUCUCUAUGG RNA 2: GGGAAUGGAUCCACAUCUACGAAUUCGUACCAUAGAGAGCGUUUAUCCGCUCACCGAGAUCGGAAGAGCACACGU : 11.1

Measured Kd, target 2 MT 5'PFS UGU 3'PFS AUC (mixed) RNA 1: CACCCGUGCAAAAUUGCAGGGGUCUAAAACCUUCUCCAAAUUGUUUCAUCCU RNA 2: GGGAAUGGAUCCACAUCUACGAAUUCUGUAGGAUGAAACAAUUUGGAGAAGAUCAGAUCGGAAGAGCACACGU : 16.6

Measured Kd, target 1 insG 3' of 22,insC 3' of 12 (mixed) RNA 1: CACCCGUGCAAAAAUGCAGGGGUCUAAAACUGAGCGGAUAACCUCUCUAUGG RNA 2: GGGAAUGGAUCCACAUCUACGAAUUCGUACGCAUAGAGAGGCUUAUCCGCUCACCGAGAUCGGAAGAGCACACGU : 42
